# System: MDR P. aeruginosa PA 923
# assay explanation: microbe, parasite or virus in culture
# Assay type: cell-based, Pseudomonas aeruginosa
# condition context: Pseudomonas aeruginosa; conventional antibiotics; microdilution, Mueller-Hinton broth, 2–5 10^5 CFU/ml, 18 h at 37°C, read visually; at least three repeats (n = 3)
test readout: MIC

# count of solved cases: 5
C[C@@H](O)[C@H]1C(=O)N2C(C(=O)O)=C(SCCN=CN)C[C@H]12 [Imipenem]    > 128 µM
CO/N=C(\C(=O)N[C@@H]1C(=O)N2C(C(=O)[O-])=C(C[N+]3(C)CCCC3)CS[C@H]12)c1csc(N)n1 [Cefepime]    64 µM
CNC(C)C1CCC(N)C(OC2C(N)CC(N)C(OC3OCC(C)(O)C(NC)C3O)C2O)O1 (stereo not shown) [Gentamycin]    128 µM
C[C@@H](O)[C@H]1C(=O)N2C(C(=O)O)=C(S[C@@H]3CN[C@H](C(=O)N(C)C)C3)[C@H](C)[C@H]12 [Meropenem]    > 128 µM
CC(C)(O/N=C(\C(=O)N[C@@H]1C(=O)N2C(C(=O)[O-])=C(C[n+]3ccccc3)CS[C@H]12)c1csc(N)n1)C(=O)O [Ceftazidime]    128 µM

Fill in MIC for each of the 5 molecules listed.
1. CCN1CCN(C(=O)N[C@@H](C(=O)N[C@@H]2C(=O)N3[C@@H]2SC(C)(C)[C@@H]3C(=O)O)c2ccccc2)C(=O)C1=O [Piperacillin]
2. NC[C@H]1O[C@H](O[C@H]2[C@H](O)[C@@H](O[C@H]3O[C@H](CO)[C@@H](O)[C@H](N)[C@H]3O)[C@H](N)C[C@@H]2N)[C@H](N)C[C@@H]1O [Tobramycin]
3. CC[C@H]1OC(=O)[C@H](C)[C@@H](O[C@H]2C[C@@](C)(OC)[C@@H](O)[C@H](C)O2)[C@H](C)[C@@H](O[C@@H]2O[C@H](C)C[C@H](N(C)C)[C@H]2O)[C@](C)(O)C[C@@H](C)C(=O)[C@H](C)[C@@H](O)[C@]1(C)O [Erythromycin]
4. CN(C)[C@@H]1C(O)=C(C(N)=O)C(=O)[C@@]2(O)C(O)=C3C(=O)c4c(O)cccc4[C@@](C)(O)[C@H]3C[C@@H]12 [Tetracyclin]
5. NCC[C@H](O)C(=O)N[C@@H]1C[C@H](N)[C@@H](O[C@H]2O[C@H](CN)[C@@H](O)[C@H](O)[C@H]2O)[C@H](O)[C@H]1O[C@H]1O[C@H](CO)[C@@H](O)[C@H](N)[C@H]1O [Amikacin]

Result:
1. 128 µM
2. 32 µM
3. 256 µM
4. > 512 µM
5. 4 µM
